Tested on: Staphylococcus aureus
test_name: Induction of biofilm eradication of methicillin-resistant Staphylococcus aureus 2 after 24 hrs by calgary biofilm device method
Type: functional
Listing: MBEC of selected compounds
The answer is to be given in µM; state only the numeric part.

Solved entries (count: 6):
compound	MBEC [µM]
Oc1c(Br)cc(Br)c2nc3cc(Cl)ccc3nc12	25
Oc1c(Br)cc(Br)c2nc3ccccc3nc12	100
CCc1ccc2nc3c(O)c(Br)cc(Br)c3nc2c1	150
C[C@H]1c2cccc(O)c2C(=O)C2=C(O)[C@]3(O)C(=O)C(C(N)=O)=C(O)[C@@H](N(C)C)[C@@H]3[C@@H](O)[C@@H]21.O	46.9
CC(C)(C)c1ccc2nc3c(O)c(Br)cc(Br)c3nc2c1	3.13
N#CC(C#N)=NNc1cccc(Cl)c1 [CARBONYL CYANIDE M-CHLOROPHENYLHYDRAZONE]	1000

# MBEC lookup, item CO[C@H]1/C=C/O[C@@]2(C)Oc3c(C)c(O)c4c(O)c(c(/C=N/N5CCN(C)CC5)c(O)c4c3C2=O)NC(=O)/C(C)=C\C=C\[C@H](C)[C@H](O)[C@@H](C)[C@@H](O)[C@@H](C)[C@H](OC(C)=O)[C@@H]1C 46.9

====

Tested on: Staphylococcus epidermidis
test_name: Induction of biofilm eradication of methicillin-resistant Staphylococcus epidermidis ATCC 35984 after 24 hrs by calgary biofilm device method
Format: functional
measurement_type: MBEC (µM)
The answer is to be given in µM; state only the numeric part.

Solved entries (count: 3):
structure_smiles	system	recorded_value
Oc1c(Br)cc(Br)c2nc3cc(Cl)ccc3nc12	Staphylococcus epidermidis	37.5
CC(C)(C)c1ccc2nc3c(O)c(Br)cc(Br)c3nc2c1	Staphylococcus epidermidis	3.13
CCN(CC)c1ccc2nc3c(O)c(Br)cc(Br)c3nc2c1Br	Staphylococcus epidermidis	6.25

Lab note: need MBEC with Staphylococcus epidermidis for entry CC1=C(C)C(=O)C(COC(=O)OCOc2c(Br)cc(Br)c3nc4cc(Cl)ccc4nc23)=C(C)C1=O , please look it up. 25

Check COCCOCCOCC(=O)Oc1c(Br)cc(Br)c2nc3ccccc3nc12 too. 37.5

Check CO[C@H]1/C=C/O[C@@]2(C)Oc3c(C)c(O)c4c(O)c(c(/C=N/N5CCN(C)CC5)c(O)c4c3C2=O)NC(=O)/C(C)=C\C=C\[C@H](C)[C@H](O)[C@@H](C)[C@@H](O)[C@@H](C)[C@H](OC(C)=O)[C@@H]1C too. 15.6

====

Tested on: Staphylococcus epidermidis
test_name: Bactericidal activity against methicillin-resistant Staphylococcus epidermidis ATCC 35984 planktonic cells after 24 hrs by calgary biofilm device method
Format: organism-based
Listing: MBC of selected compounds
The answer is to be given in µM; state only the numeric part.

Solved entries (count: 3):
structure_smiles	MBC [µM]
O=C(O)CN(CCN(CC(=O)O)CC(=O)O)CC(=O)O	1000
Oc1c(Br)cc(Br)c2nc3ccccc3nc12	50
COCCOCCOCCOCCOC(=O)Oc1c(Br)cc(Br)c2nc3cc(Cl)ccc3nc12	9.38

# MBC lookup, item CC(C)(C)c1ccc2nc3c(O)c(Br)cc(Br)c3nc2c1 6.25

Check COCCOCCOCC(=O)Oc1c(Br)cc(Br)c2nc3ccccc3nc12 too. 9.38

Check CS(=O)(=O)N1CCN(C(=O)Oc2c(Br)cc(Br)c3nc4ccccc4nc23)C1=O too. 18.8

Check Oc1c(Br)cc(Br)c2nc3cc(Cl)ccc3nc12 too. 6.25

Check CCCc1ccc2nc3c(O)c(Br)cc(Br)c3nc2c1 too. 25

Check Cc1cc2nc3c(O)c(Br)cc(Br)c3nc2c(C)c1C too. 25

Check CCN(CC)c1ccc2nc3c(O)c(Br)cc(Br)c3nc2c1Br too. 9.38

====

Test system: Staphylococcus epidermidis
test_name: Bactericidal activity against methicillin-resistant Staphylococcus epidermidis ATCC 35984 planktonic cells after 24 hrs by calgary biofilm device method
Assay type: organism-based
Listing: MBC of selected molecules
The answer is to be given in µM; state only the numeric part.

Solved entries (count: 3):
structure_smiles	MBC / µM
CC1=C(C)C(=O)C(COC(=O)OCOc2c(Br)cc(Br)c3nc4cc(Cl)ccc4nc23)=C(C)C1=O	12.5
CC1=C(C)C(=O)C(COC(=O)OCOc2c(Br)cc(Br)c3nc4ccccc4nc23)=C(C)C1=O	37.5
CCc1ccc2nc3c(O)c(Br)cc(Br)c3nc2c1	50

Now take the following molecule into account.
# MBC lookup, item CO[C@H]1/C=C/O[C@@]2(C)Oc3c(C)c(O)c4c(O)c(c(/C=N/N5CCN(C)CC5)c(O)c4c3C2=O)NC(=O)/C(C)=C\C=C\[C@H](C)[C@H](O)[C@@H](C)[C@@H](O)[C@@H](C)[C@H](OC(C)=O)[C@@H]1C 3

====

System: Enterococcus faecium
test_name: Antibacterial activity against vancomycin-resistant Enterococcus faecium ATCC 700221 after 16 to 18 hrs by broth microdilution method
Assay type: functional
Listing: MIC of selected molecules

Solved entries (count: 8):
structure_smiles	MIC
Oc1c(Br)cc(Br)c2nc3cc(Oc4ccccc4)ccc3nc12	0.2 µM
CCc1ccc2nc3c(O)c(Br)cc(Br)c3nc2c1	2.35 µM
COCCOCCOCCOC(=O)OCOc1c(Br)cc(Br)c2nc3ccccc3nc12	> 100 µM
CCN(CC)c1ccc2nc3c(O)c(Br)cc(Br)c3nc2c1Br	0.3 µM
CCc1cccc2nc3c(Br)cc(Br)c(O)c3nc12	> 100 µM
COCCOCCOCCOCCOC(=O)Oc1c(Br)cc(Br)c2nc3cc(Cl)ccc3nc12	0.1 µM
OC[C@H]1O[C@@H](Oc2c(Br)cc(Br)c3nc4ccccc4nc23)[C@H](O)[C@@H](O)[C@@H]1O	> 100 µM
CCCc1cn(Cc2ccc3nc4c(OC(C)=O)c(Br)cc(Br)c4nc3c2)nn1	> 100 µM

Now take the following molecule into account.
# MIC lookup, item O=C(OCCSSCCOC(=O)c1ccccc1)OCOc1c(Br)cc(Br)c2nc3ccccc3nc12 > 100 µM

====

Test system: Staphylococcus aureus
test_name: Bactericidal activity against methicillin-resistant Staphylococcus aureus 2 planktonic cells after 24 hrs by calgary biofilm device method
Format: organism-based
Listing: MBC of selected compounds

compound	measurement_type	recorded_value
NC(=O)c1cnccn1 [PYRAZINAMIDE]	MBC	> 2000 µM
Oc1c(Br)cc(Br)c2nc3ccccc3nc12	MBC	50 µM
CC(C)(C)c1ccc2nc3c(O)c(Br)cc(Br)c3nc2c1	MBC	3.13 µM
CC(=O)N[C@@H](CS)C(=O)O	MBC	> 2000 µM
Oc1c(Br)cc(Br)c2nc3cc(Cl)ccc3nc12	MBC	6.25 µM

Now take the following compound into account.
Lab note: need MBC with Staphylococcus aureus for entry O=C(O)CN(CCN(CC(=O)O)CC(=O)O)CC(=O)O , please look it up. 2000 µM

====

Test system: Mycobacterium tuberculosis
test_name: Antibacterial activity against Mycobacterium tuberculosis H37Ra ATCC 25177 after 7 days
Type: functional
applied_conditions: H37Ra ATCC 25177, 168 h
Checkbox rule: MIC lower than 6 µM = t; MIC not lower than 6 µM = f.

molecule	group_label
CCc1ccc2nc3c(O)ccc(Br)c3nc2c1	f

Input Cc1cc(C)c2nc3c(Br)cc(Br)c(O)c3nc2c1 ; condition: MIC strictly below 6 µM. Does it hold? f

Check Oc1c(Br)cc(Br)c2nc3cc(Oc4ccccc4)ccc3nc12 too. f

Check Oc1c(Br)cc(Br)c2nc3ccccc3nc12 too. f

Check Oc1c(Br)cc(Br)c2nc3cc(Cl)ccc3nc12 too. t

Check CN[C@@H]1[C@H](O[C@H]2[C@H](O[C@H]3[C@H](O)[C@@H](O)[C@H](N=C(N)N)[C@@H](O)[C@@H]3N=C(N)N)O[C@@H](C)[C@]2(O)C=O)O[C@@H](CO)[C@H](O)[C@H]1O [STREPTOMYCIN] too. t

Check Cc1ccc2nc3c(O)c(Br)cc(Br)c3nc2c1 too. f

====

test_name: Half life in human serum by LC-MS analysis
Type: ADME, cell-free
Listing: half-life of selected molecules

Solved entries (count: 3):
structure_smiles	recorded_value
COCCOCCOCCOCCOC(=O)Oc1c(Br)cc(Br)c2nc3cc(Cl)ccc3nc12	< 1 min
COCCOCCOCC(=O)Oc1c(Br)cc(Br)c2nc3ccccc3nc12	< 1 min
COCCOCCOCCOCCOC(=O)Oc1c(Br)cc(Br)c2nc3cc(Oc4ccccc4)ccc3nc12	< 1 min

# half-life lookup, item OC[C@H]1O[C@@H](Oc2c(Br)cc(Br)c3nc4ccccc4nc23)[C@H](O)[C@@H](O)[C@@H]1O > 260 min

Check CS(=O)(=O)N1CCN(C(=O)Oc2c(Br)cc(Br)c3nc4ccccc4nc23)C1=O too. < 1 min
